# ASSAY SYSTEM: T1, Human CD27 ECD truncated (ECD 1-121, cleavage site, His6) (human)
# T1 construct: also called human CD27 ECD with His Tag; CD27-His
# T1 chain: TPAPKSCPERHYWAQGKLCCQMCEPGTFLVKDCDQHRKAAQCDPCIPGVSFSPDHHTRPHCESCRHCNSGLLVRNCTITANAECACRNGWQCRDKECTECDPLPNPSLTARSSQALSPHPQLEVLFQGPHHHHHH
# ASSAY PROCEDURE: ProteOn SPR, purified mAb, CD27-His
ATTRIBUTE MEASURED: kon (M⁻¹ s⁻¹)
I only need the number, in M⁻¹ s⁻¹, no unit after it.

Which kon value is on record for M673 (antibody, V domains shown, isotype not restated (path 2); also called H256,L217) VH: QVQLVQSGAEVKKPGASVKVSCKASGYAFSSSWMNWVRQAPGQGLEWMGRIYSGDADTNYNQKFKGRVTMTRDTSTSTVYMELSSLRSEDTAVYYCARSDYYGDYGFAYWGQGTLVTVSS VL: DIQMTQSPSSLSASVGDRVTITCKASQSVDYAHESFMNWYQQKPGKAPKLLIYAASNLESGVPSRFSGSGSGTDFTLTISSLQPEDFATYYCQQSNEDPYTFGQGTKVEIK ?
1.89e+06

What about this binder? M671 (antibody, V domains shown, isotype not restated (path 2); also called H258,L266) VH: EVQLVQSGAEVKKPGESLKISCKGSGYAFSSSWMNWVRQMPGKGLEWMGRIYSGDADTNYNQKFKGQVTISADKSISTAYLQWSSLKASDTAMYYCARSDYYGDYGFAYWGQGTLVTVSS VL: DIQMTQSPSSLSASVGDRVTITCKASQSVDYAGESFMNWYQQKPGKAPKLLIYAASNLESGVPSRFSGSGSGTDFTLTISSLQPEDFATYYCQQSNEDPYTFGQGTKVEIK
2.52e+06

What about this binder? M672 (antibody, V domains shown, isotype not restated (path 2); also called H255,L217) VH: QVQLVQSGAEVKKPGASVKVSCKASGYAFSSSWMNWVRQAPGQGLEWMGRIYSGDADTNYAQKFKGRVTMTRDTSTSTVYMELSSLRSEDTAVYYCARSDYYGDYGFAYWGQGTLVTVSS VL: DIQMTQSPSSLSASVGDRVTITCKASQSVDYAHESFMNWYQQKPGKAPKLLIYAASNLESGVPSRFSGSGSGTDFTLTISSLQPEDFATYYCQQSNEDPYTFGQGTKVEIK
1.83e+06

What about this binder? M169 (antibody, V domains shown, isotype not restated (path 2 mAbs were IgG4 Ser to Pro, Ala/Ala / kappa); also called H221, L219; CM169) VH: EVQLVQSGAEVKKPGESLKISCKGSGYAFSSSWMNWVRQMPGKGLEWMGRIYSGDGDTNYNGKFKGQVTISADKSISTAYLQWSSLKASDTAMYYCARSDYYGDYGFAYWGQGTLVTVSS VL: DIQMTQSPSSLSASVGDRVTITCKASQSVDYAGDSFMNWYQQKPGKAPKLLIYAASNLESGVPSRFSGSGSGTDFTLTISSLQPEDFATYYCQQSNEDPYTFGQGTKVEIK
2.36e+06

What about this binder? M670 (antibody, V domains shown, isotype not restated (path 2); also called H257,L266) VH: EVQLVQSGAEVKKPGESLKISCKGSGYAFSSSWMNWVRQMPGKGLEWMGRIYSGDADTNYAQKFKGQVTISADKSISTAYLQWSSLKASDTAMYYCARSDYYGDYGFAYWGQGTLVTVSS VL: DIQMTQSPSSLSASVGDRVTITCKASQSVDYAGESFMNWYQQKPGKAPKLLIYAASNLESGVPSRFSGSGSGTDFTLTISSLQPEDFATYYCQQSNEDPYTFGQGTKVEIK
1.73e+06
